systemName: T1, soluble murine CD25 (murine, UniProt P01590 22-236, limits assumed)
T1 construct: also called soluble CD25; mouse CD25
T1 sequence (looked up): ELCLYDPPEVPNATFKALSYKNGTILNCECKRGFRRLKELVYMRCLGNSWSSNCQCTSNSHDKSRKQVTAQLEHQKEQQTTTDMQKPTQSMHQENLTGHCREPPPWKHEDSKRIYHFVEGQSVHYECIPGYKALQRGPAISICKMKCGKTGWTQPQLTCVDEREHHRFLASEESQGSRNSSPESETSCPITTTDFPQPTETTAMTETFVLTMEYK
test: yeast surface display, titration with soluble murine CD25
reportedMetric: binding result

mIL-2 QQ 6.2-4 (ligand) APTSSSTSSSTAEAQQQQQQQQQQQQHLEQLLMDLQELLSRMEDSRNLRLPRMLTFKFYLPKQATELEDLQCLEDELEPLRQVLDLTQSKSFQLEDAENFISNIRVTVVKLKGSDNTFECQFDDEPATVVGFLRRWIAFCQSIISTSPQ :: binds
mIL-2 QQ 6.2-11 (ligand, Reversion mutant) APTSSSTSSSTAEAQQQQQQQQQHLEQLLMDLQELLSRMEDSRNLRLPRMLTFKFYLPEQATELKDLQCLEDELEPLRQVLDLTQSKSFQLEDAENFISNIRVTVVKLKGSDNTFECQFDDEPATVVDFLRRWIAFCQSIISTSPQ :: binds
